Data origin, for the record: patent US8263606B2

measurementLabel: melting point

What melting point value was documented for this compound, CN1C(=O)C2(COc3cc4c(cc32)OCCO4)c2c(Oc3ncccc3C(F)(F)F)cccc21 (stereo not drawn) [Example 16.55] ?
> 250 °C

Quick check: melting point of O=C1N(Cc2cc3cccc(F)c3o2)c2ccccc2C12COc1cc3c(cc12)CCO3 (stereo not drawn) [Example 9.8] ?
192 to 193 °C

Returns the measured melting point for the input compound. Input: O=C1N(Cc2ccc(C(F)(F)F)o2)c2ccccc2C12COc1cc(N[C@@H]3CCNC3)ccc12 (stereo partly drawn) [Example 11.52]
122 to 125 °C

Look up melting point: C[C@H](O)CN1C(=O)C2(COc3cc4c(cc32)CCO4)c2ccccc21 (stereo partly drawn) [Example 14]
171 to 174 °C

Any idea what its melting point is? The compound is N#Cc1cc2c(cc1F)OCC21C(=O)Nc2ccccc21 (stereo not drawn) [Example 3.30]
222 to 224 °C

I would be grateful if you could share the reported melting point for Cl.O=C1N(Cc2ccccn2)c2ccccc2C12COc1cc3c(cc12)OCCO3 (stereo not drawn) [Example 4.42] .
206 to 208 °C

Fill in the blank: the reported melting point of O=C1N(Cc2ncccn2)c2ccccc2[C@]12COc1cc3c(cc12)OCCO3 [Example 5.18] is ____.
210 to 212 °C

melting point for O=C(O)CN1C(=O)C2(COc3cc4c(cc32)OCCO4)c2ccccc21 (stereo not drawn) [Example 11.76] ?
193 to 196 °C

Value lookup for melting point; key = O=C1N(Cc2ccc(O)cc2)c2ccccc2C12COc1cc3c(cc12)OCCO3 (stereo not drawn) [Example 17.1]
243 to 244 °C

Item under review: O=C1N(Cc2ncccc2Br)c2ccccc2C12COc1cc3c(cc12)OCCO3 (stereo not drawn) [Example 11.78] . Reported melting point?
217 to 218 °C

Returns the measured melting point for the input compound. Input: Cc1nc2cc3c(cc2o1)C1(CO3)C(=O)Nc2ccccc21 (stereo not drawn) [Example 3.12]
242 to 244 °C

Which measured melting point value corresponds to O=C1N(CC2CCCCO2)c2ccccc2C12COc1cc3c(cc12)OCCO3 (stereo not drawn) [Example 4.38] ?
158 to 166 °C

Can you share its melting point? I mean this compound: O=C1N(C[C@@H]2CCCO2)c2ccccc2C12COc1cc3c(cc12)OCCO3 (stereo partly drawn) [Example 4.43]
173 to 175 °C

Name the reported melting point value associated with the compound COc1cc(OC)nc(CN2C(=O)C3(COc4cc5c(cc43)OCCO5)c3ccccc32)n1 (stereo not drawn) [Example 5.33]
169 to 170 °C

Need melting point of O=C1N(C[C@H]2CCCO2)c2ccccc2C12COc1cc3c(cc12)CCCC3 (stereo partly drawn) [Example 4.129] , thanks.
139 to 141 °C

Fill in the blank: the reported melting point of O=C1N(Cc2ccccn2)c2ccccc2[C@]12COc1cc3c(cc12)CCO3 [Example 5.6] is ____.
84 to 85 °C

// query melting point value for entry CCc1ccc(NC(=O)c2ccccc2CN2C(=O)C3(COc4cc5c(cc43)CCO5)c3ccccc32)cc1 (stereo not drawn) [Example 12.8]
> 230 °C

Which value of melting point has been reported for Cc1nc(-c2ccc(CN3C(=O)C4(COc5cc6c(cc54)OCCO6)c4ccccc43)cc2)no1 (stereo not drawn) [Example 11.84] in the records?
174 to 175 °C

// query melting point value for entry O=C1N(C[C@H]2CCCO2)c2ccccc2C12COc1cc(O)ccc12 (stereo partly drawn) [Example 11.53]
72 to 74 °C

Using the record for COCCNC(=O)c1cccc(CN2C(=O)C3(COc4cc5c(cc43)CCO5)c3ccccc32)c1 (stereo not drawn) [Example 12.1] , report its melting point.
72 to 73 °C

Bench note: what melting point did COc1ccc(CN2C(=O)C3(COc4cc5c(C)noc5cc43)c3ccccc32)cc1 (stereo not drawn) [Example 2.41] show?
183 to 184 °C

Given O=C1Nc2cccc(-c3cnc4ccccc4c3)c2C12COc1cc3c(cc12)OCCO3 (stereo not drawn) [Example 3.34] , state its recorded melting point.
221 to 224 °C

Quick check: melting point of O=C1Nc2ccccc2C12COc1ccc3c(c12)OCCO3 (stereo not drawn) [Example 3.43] ?
259 to 261 °C

Reported melting point for O=C(NCc1ccccc1Cl)c1ccccc1CN1C(=O)C2(COc3cc4c(cc32)CCO4)c2ccccc21 (stereo not drawn) [Example 12.16] : what is it?
148 to 150 °C

Name the recorded melting point for CCOCCNC(=O)c1ccc(CN2C(=O)C3(COc4cc5c(cc43)CCO5)c3ccccc32)cc1 (stereo not drawn) [Example 12.41] .
84 to 85 °C

// lookup melting point for Cc1noc(-c2ccc(CN3C(=O)C4(COc5cc6c(cc54)OCCO6)c4ccccc43)cc2)n1 (stereo not drawn) [Example 30]
177 to 178 °C
